- Tested System: human CPT1A (Homo sapiens, UniProt P50416)
- Construct: made in house; host or cells: Saccharomyces cerevisiae (pESC-trp) or cultured mammalian cells (pCDNA3.1); mitochondrial extract
- Sequence (P50416 whole entry): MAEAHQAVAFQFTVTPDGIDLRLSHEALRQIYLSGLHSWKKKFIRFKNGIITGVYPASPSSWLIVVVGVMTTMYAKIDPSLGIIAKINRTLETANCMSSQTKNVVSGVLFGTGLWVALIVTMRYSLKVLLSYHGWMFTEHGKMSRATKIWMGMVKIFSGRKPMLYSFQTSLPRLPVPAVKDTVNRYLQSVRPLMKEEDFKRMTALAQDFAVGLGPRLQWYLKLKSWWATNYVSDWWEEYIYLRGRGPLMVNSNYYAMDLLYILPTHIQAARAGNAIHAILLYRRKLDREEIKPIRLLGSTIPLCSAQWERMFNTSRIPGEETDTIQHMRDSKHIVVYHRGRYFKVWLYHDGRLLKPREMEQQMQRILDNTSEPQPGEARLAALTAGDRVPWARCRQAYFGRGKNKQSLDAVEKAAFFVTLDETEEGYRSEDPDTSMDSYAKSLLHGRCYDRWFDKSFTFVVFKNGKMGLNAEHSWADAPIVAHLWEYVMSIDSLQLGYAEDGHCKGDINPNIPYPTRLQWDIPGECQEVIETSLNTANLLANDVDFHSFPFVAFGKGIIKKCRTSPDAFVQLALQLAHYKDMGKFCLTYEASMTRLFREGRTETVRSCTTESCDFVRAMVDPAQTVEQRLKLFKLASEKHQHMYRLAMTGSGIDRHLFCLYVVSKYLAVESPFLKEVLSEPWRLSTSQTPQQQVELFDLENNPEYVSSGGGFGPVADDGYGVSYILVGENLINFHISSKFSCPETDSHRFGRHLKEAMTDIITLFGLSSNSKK
- Assay Notes: Human CPT1A LC/MS assay
- Format: biochemical
- Condition Set: dose response assay, n=17
Property: IC50

Request: Which measured IC50 value corresponds to C[N+](C)(C)C[C@H](N)CC(=O)[O-] [L-aminocarnitine, reference compound] ?
Response: 7 µM

---

Record type: GI50 measurement. Applies to: Hs578T
Answers are plain numbers, in µM.

CCCCCCCCc1ccc(NS(=O)(=O)NC2(CC(=O)O)CCC[N+](C)(C)C2)cc1 (centres unmarked) [Example S16, 2,2,2-trifluoroacetate]
17

Your task in this section: give GI50 for each listed record.
1. CCCCCCCCc1ccc(NS(=O)(=O)NC2(CC(=O)O)CCCN(C)C2)cc1 (centres unmarked) [Example S15, 2,2,2-trifluoroacetate]
2. CCCCCCCCc1ccc(NC(=O)NC2(CC(=O)O)CNC2)cc1 [Example S23, 2,2,2-trifluoroacetate]
3. CCCCCCCCc1ccc(NC(=O)NC2(CC(=O)O)C[N+](C)(C)C2)cc1 [Example S24, 2,2,2-trifluoroacetate]
4. CCCCCCCCc1ccc(NC(=O)NC2(CC(=O)O)CC[N+](C)(C)C2)cc1 (centres unmarked) [Example S18, 2,2,2-trifluoroacetate]
5. CCCCCCCCc1ccc(NS(=O)(=O)NC2(CC(=O)O)CC[N+](C)(C)CC2)cc1 [Example S8, 2,2,2-trifluoroacetate]
6. CCCCCCCCc1ccc(NC(=O)NC2(CC(=O)O)CCC[N+](C)(C)C2)cc1 (centres unmarked) [Example S10, 2,2,2-trifluoroacetate]
7. CCCCCCCCc1ccc(N(C)S(=O)(=O)NC2(CC(=O)O)CCC[N+](C)(C)C2)cc1 (centres unmarked)
8. CCCCCCCCc1ccc(NC(=O)NC2(CC(=O)O)CC[N+](C)(C)CC2)cc1 [Example S2, 2,2,2-trifluoroacetate]

Response:
25
45
46
26
26
39
3
50
